Assay: melting temperature; fluorescence melt of hairpins on a sequencing array, two-state fit, raised by 9.35 °C to match UV melts
Details: sodium 0.088 M
Below is a list of entries, each paired with its recorded Tm value.
Numeric only. Scale: °C

Known Tm results, listed for orientation:
GGTCCGGCGAAAGCCACC (((..(((....)))))) = 27.1
GTGCGCGAAAGCGTCAC ((((((....))).))) = 58.6

Item under review: GATCACATGGTGATC ((((((...)))))) . Reported Tm?
61.1

Item under review: GGTGACGGAAACGTCGCC ((.((((....)))).)) . Reported Tm?
64.6

Item under review: GGTTATCGAAAGATACC (((.(((....)))))) . Reported Tm?
43.1

Item under review: GCGACGGCGAAAGCCCGC (((..(((....)))))) . Reported Tm?
58.1

Item under review: GCCCAAGGAAACTTGGAC (.(((((....))))).) . Reported Tm?
38

Item under review: GGAAAGCCGAAAGGCTCC (((..(((....)))))) . Reported Tm?
42.2
